Measured Target: Macrophage-stimulating protein receptor (Homo sapiens)
Stated Conditions: at 1 µM
Property Label: residual activity (%)

• O=C1Nc2cc(Br)ccc2/C1=C1/Nc2ccccc2/C1=N\O = 79
• CC(=O)c1ccc(N2CCOCC2)cc1O = 91
• Oc1c2ccccc2c2c3c(cccc13)N=N2 = 78
• CC(C)n1cnc2c(NCc3ccccc3)nc(NCCCO)nc21 = 88
• O=C1Nc2ccccc2/C1=C1/Nc2ccccc2/C1=N\OCCC(O)CO (stereo unspecified) = 75
• Nc1nc(Nc2ccc(S(N)(=O)=O)cc2)nn1C(=S)Nc1c(F)cccc1F = 7

---

Measured Target: Serine/threonine-protein kinase N2 (Homo sapiens) (UniProt Q16513)
Sequence (Q16513 whole entry, looked up): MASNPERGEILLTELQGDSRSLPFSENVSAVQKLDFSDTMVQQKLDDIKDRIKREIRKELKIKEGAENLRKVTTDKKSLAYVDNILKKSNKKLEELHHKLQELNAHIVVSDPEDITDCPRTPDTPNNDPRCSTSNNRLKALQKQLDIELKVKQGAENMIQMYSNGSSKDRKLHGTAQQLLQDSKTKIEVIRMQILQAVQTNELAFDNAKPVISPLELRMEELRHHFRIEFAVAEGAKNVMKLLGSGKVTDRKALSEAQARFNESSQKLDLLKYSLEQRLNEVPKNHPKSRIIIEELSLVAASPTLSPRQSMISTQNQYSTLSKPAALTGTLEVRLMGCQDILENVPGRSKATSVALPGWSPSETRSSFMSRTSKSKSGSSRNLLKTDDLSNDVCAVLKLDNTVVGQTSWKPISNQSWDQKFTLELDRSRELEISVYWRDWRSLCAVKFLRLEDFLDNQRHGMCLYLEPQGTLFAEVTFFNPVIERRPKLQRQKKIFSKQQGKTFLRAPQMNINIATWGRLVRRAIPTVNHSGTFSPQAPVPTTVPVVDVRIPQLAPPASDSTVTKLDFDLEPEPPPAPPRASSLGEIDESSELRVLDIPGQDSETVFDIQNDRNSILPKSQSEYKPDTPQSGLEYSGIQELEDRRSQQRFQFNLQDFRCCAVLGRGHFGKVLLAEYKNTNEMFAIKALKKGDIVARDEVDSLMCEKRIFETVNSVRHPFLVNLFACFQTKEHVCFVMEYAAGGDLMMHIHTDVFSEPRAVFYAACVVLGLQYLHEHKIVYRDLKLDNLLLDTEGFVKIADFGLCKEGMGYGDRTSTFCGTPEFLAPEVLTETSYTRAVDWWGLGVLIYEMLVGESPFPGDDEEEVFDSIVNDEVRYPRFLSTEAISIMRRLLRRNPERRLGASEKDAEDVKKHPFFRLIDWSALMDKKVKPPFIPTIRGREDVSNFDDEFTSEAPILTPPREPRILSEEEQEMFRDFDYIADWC
Stated Conditions: at 1 µM
Property Label: residual activity (%)

- O=C1NC(=O)/C(=C\c2ccc3nccnc3c2)S1: 103
- O=C1NC(=O)/C(=C/c2ccc3c(c2)OC(F)(F)O3)S1: 117
- Cc1cc2ncc(-c3ccccc3)nc2cc1C: 102
- Cn1nc2c3c(cccc31)C(=O)c1ccccc1-2: 95
- COc1ccc(C(=O)Nc2sc3c(c2C(N)=O)CCCC3)cc1OC: 88
- NC(=O)c1ccc2[nH]c(-c3ccc(Oc4ccc(Cl)cc4)cc3)nc2c1: 101

---

List of residual activity values.
Measured Target: Tyrosine-protein kinase Tec (Homo sapiens)
Sequence (whole entry): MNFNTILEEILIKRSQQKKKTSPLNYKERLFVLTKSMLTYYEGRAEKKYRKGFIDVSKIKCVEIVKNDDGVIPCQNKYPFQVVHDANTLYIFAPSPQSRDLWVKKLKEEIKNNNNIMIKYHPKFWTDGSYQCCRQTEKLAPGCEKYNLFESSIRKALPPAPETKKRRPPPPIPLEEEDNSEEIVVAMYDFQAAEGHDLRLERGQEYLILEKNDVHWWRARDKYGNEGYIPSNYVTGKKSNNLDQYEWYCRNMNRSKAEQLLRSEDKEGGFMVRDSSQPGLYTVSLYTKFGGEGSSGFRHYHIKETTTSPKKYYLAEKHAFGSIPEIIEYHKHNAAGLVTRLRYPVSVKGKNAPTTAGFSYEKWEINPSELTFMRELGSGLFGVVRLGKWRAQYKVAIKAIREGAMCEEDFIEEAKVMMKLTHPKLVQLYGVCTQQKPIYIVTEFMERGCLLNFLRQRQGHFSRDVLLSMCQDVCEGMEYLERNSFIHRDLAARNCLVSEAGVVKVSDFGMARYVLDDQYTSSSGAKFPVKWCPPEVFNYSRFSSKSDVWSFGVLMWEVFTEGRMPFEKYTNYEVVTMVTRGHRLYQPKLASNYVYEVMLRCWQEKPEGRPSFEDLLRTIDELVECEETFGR
Stated Conditions: at 10 µM
Property Label: residual activity

- c1ccc2c(-c3ccncc3)c[nH]c2c1: 85%
- Cc1cc2ncc(-c3ccccc3)nc2cc1C: 71%
- N#CC(C#N)=C(N)/C(C#N)=C/c1ccc(O)cc1: 88%
- COc1cccc(-c2cc(=O)c3ccccc3o2)c1N: 91%
- CO[C@H]1[C@@H](OC)C[C@H](C)[C@@H](OC)C2=CC(=O)C=C(NC(=O)/C(C)=C/C=C/[C@H](OC)[C@@H](OC(N)=O)/C(C)=C/[C@@H]1C)C2=O: 84%
- N#C/C(=C(\N)Sc1ccc(N)cc1)c1ccccc1C(F)(F)F: 63%
- COc1cc2ncnc(Nc3ccc(O)c(Br)c3)c2cc1OC: 34%
- CO[C@H]1C[C@@H]2CC[C@@H](C)[C@@](O)(O2)C(=O)C(=O)N2CCCC[C@H]2C(=O)O[C@H]([C@H](C)C[C@@H]2CC[C@@H](O)[C@H](OC)C2)CC(=O)[C@H](C)/C=C(\C)[C@@H](O)[C@@H](OC)C(=O)[C@H](C)C[C@H](C)/C=C/C=C/C=C/1C: 90%
- CCC(=O)Nc1ccc2ncnc(Nc3cccc(Br)c3)c2c1: 90%
- COc1ccc(C(=O)Nc2sc3c(c2C(N)=O)CCCC3)cc1OC: 86%
- Cc1nc(-c2ccccc2)c(-c2ccncc2)o1: 42%
- O=c1cc(-c2cccc3c2Sc2ccccc2S3)oc(N2CCOCC2)c1: 75%
- O=C1NC(=O)/C(=C/c2ccc3c(c2)OC(F)(F)O3)S1: 80%
- O=C(Nc1cccc(Nc2cc(Nc3cccc(C(F)(F)F)c3)ncn2)c1)C1CC1: 27%
- Oc1ccc(-c2nc(-c3ccc(F)cc3)c(-c3ccncc3)[nH]2)cc1: 55%
- N#Cc1cnc2cnc(NCc3cccnc3)cc2c1Nc1ccc(F)c(Cl)c1: 65%
- O=C1Nc2ccccc2/C1=C1/Nc2ccccc2/C1=N\OCCC(O)CO (configuration not stated): 8%
